Field: logP[a]. Provide a value for each of the compounds that follow.
assay: log P by HPLC on reversed-phase columns (C 18), EEC directive 79/831 Annex V.A8; format: physicochemical; settings: method [a]
Numbers only.

N#Cc1ccc(-n2cnc3sccc3c2=O)cc1[S+]([O-])CC(F)(F)F (centres unmarked) [Compound 88]; 2.07

Report logP[a] for each item below.
1. O=c1c2ccsc2ncn1-c1cc(SCC(F)(F)F)c(Cl)cc1Cl [Compound 90]
2. Cc1cc(F)c(-n2c(C(F)(F)F)nc3c(cnn3CC(F)(F)F)c2=O)cc1SCC(F)(F)F [Compound 19]
3. Cc1cc(F)c(-n2cnc3ncsc3c2=O)cc1[S+]([O-])CC(F)(F)F (centres unmarked) [Compound 79]
4. Cc1cc(C)c(-n2cnc3scnc3c2=O)cc1SCC(F)(F)F [Compound 62]
5. O=c1c2scnc2ncn1-c1cc(SCC(F)(F)F)c(Cl)cc1Cl [Compound 77]
6. CCn1cnc2c(=O)n(-c3cc([S+]([O-])CC(F)(F)F)c(C)cc3F)cnc21 (racemic) [Compound 54]
7. Cc1cc(C)c([S+]([O-])CC(F)(F)F)cc1-n1cnc2c(cnn2C)c1=O (racemic) [Compound 9]

1: 3.51; 2: 4.20; 3: 1.60; 4: 2.67; 5: 2.79; 6: 1.60; 7: 1.74

Report logP[a] for each item below.
1. Cc1cc(F)c(-n2cnc3c(Cl)c(Cl)sc3c2=O)cc1[S+]([O-])CC(F)(F)F (centres unmarked) [Compound 115]
2. Cc1cc(F)c(-n2cnc3c(Cl)csc3c2=O)cc1[S+]([O-])CC(F)(F)F (centres unmarked) [Compound 114]
3. Cc1cc(F)c(-n2cnc3scnc3c2=O)cc1[S+]([O-])CC(F)(F)F (centres unmarked) [Compound 61]
4. Cc1cc(C)c(-n2cnc3c(ncn3C)c2=O)cc1SCC(F)(F)F [Compound 55]

1: 3.20; 2: 2.43; 3: 1.57; 4: 2.28

Report logP[a] for each item below.
1. Cc1ccc(-n2cnc3ccsc3c2=O)cc1[S+]([O-])CC(F)(F)F (centres unmarked) [Compound 101]
2. COc1ccc(-n2cnc3sccc3c2=O)cc1[S+]([O-])CC(F)(F)F (centres unmarked) [Compound 89]
3. Cc1nc2c(=O)n(-c3cc(SCC(F)(F)F)c(Cl)cc3Cl)cnc2s1 [Compound 71]
4. Cc1cc(F)c(-n2cnc3c(Cl)csc3c2=O)cc1SCC(F)(F)F [Compound 110]
5. Cc1c2c(=O)n(-c3ccc(C#N)c([S+]([O-])CC(F)(F)F)c3)cnc2nn1C (racemic) [Compound 51]

[1.82, 1.91, 3.09, 3.56, 1.52]
